# Test system: Escherichia coli
# experiment: Tested in vitro for minimum inhibitory concentration to produce antibacterial activity against Escherichia coli JUHL
# Format: functional
assayMetric: MIC

[
  {
    "compound": "CC[C@H]1OC(=O)[C@H](C)C[C@H](C)[C@@H](O[C@@H]2O[C@H](C)C[C@H](N(C)C)[C@H]2O)[C@](C)(OC)C[C@@H](C)/C(=N\\OC)[C@H](C)[C@@H](O)[C@]1(C)O",
    "testedOn": "Escherichia coli",
    "reportedMeasurement": "> 100 µg/mL"
  },
  {
    "compound": "CC[C@H]1OC(=O)[C@H](C)C[C@H](C)[C@@H](O[C@@H]2O[C@H](C)C[C@H](N(C)C)[C@H]2O)[C@](C)(OC)C[C@@H](C)C(=O)/C(C)=C/[C@]1(C)O",
    "testedOn": "Escherichia coli",
    "reportedMeasurement": "> 100 µg/mL"
  },
  {
    "compound": "CC[C@H]1OC(=O)[C@H](C)C[C@H](C)[C@@H](O[C@@H]2O[C@H](C)C[C@H](N(C)C)[C@H]2O)[C@](C)(OC)C[C@@H](C)C(=O)[C@H](C)[C@@H](O)[C@]1(C)O",
    "testedOn": "Escherichia coli",
    "reportedMeasurement": "> 100 µg/mL"
  },
  {
    "compound": "CC[C@H]1OC(=O)[C@H](C)[C@@H](O[C@H]2C[C@@](C)(OC)[C@@H](O)[C@H](C)O2)[C@H](C)[C@@H](O[C@@H]2O[C@H](C)C[C@H](N(C)C)[C@H]2O)[C@](C)(OC)C[C@@H](C)C(=O)[C@H](C)[C@@H](O)[C@]1(C)O [CLARITHROMYCIN]",
    "testedOn": "Escherichia coli",
    "reportedMeasurement": "100 µg/mL"
  },
  {
    "compound": "CC[C@H]1OC(=O)[C@H](C)C[C@H](C)[C@@H](O[C@@H]2O[C@H](C)C[C@H](N(C)C)[C@H]2O)[C@](C)(OC)C[C@@H](C)C(=O)[C@H](C)[C@H]2N(CCCCc3ccccc3)C(=O)O[C@]12C",
    "testedOn": "Escherichia coli",
    "reportedMeasurement": "> 100 µg/mL"
  }
]

----------
# Test system: Streptococcus pyogenes
# experiment: Tested in vitro for minimum inhibitory concentration to produce antibacterial activity against Streptococcus pyogenes PIU 2548
# Assay type: functional
Items are presented alongside their recorded MIC.

[
  {
    "mol": "CC[C@H]1OC(=O)[C@H](C)[C@@H](O[C@H]2C[C@@](C)(OC)[C@@H](O)[C@H](C)O2)[C@H](C)[C@@H](O[C@@H]2O[C@H](C)C[C@H](N(C)C)[C@H]2O)[C@](C)(OC)C[C@@H](C)C(=O)[C@H](C)[C@@H](O)[C@]1(C)O",
    "uom": "µg/mL",
    "MIC": 8
  },
  {
    "mol": "CC[C@H]1OC(=O)[C@H](C)C[C@H](C)[C@@H](O[C@@H]2O[C@H](C)C[C@H](N(C)C)[C@H]2O)[C@](C)(OC)C[C@@H](C)C2=NCCN3C(=O)O[C@@]1(C)[C@H]3[C@H]2C",
    "uom": "µg/mL",
    "MIC": 0.78
  }
]

----------
# Tested on: Staphylococcus aureus
# experiment: Tested in vitro for minimum inhibitory concentration to produce antibacterial activity against Staphylococcus aureus ATCC 6538P in presence of erythromycin A
# Format: functional
Items are presented alongside their recorded MIC.
assayMetric: MIC (µg/mL)

[
  {
    "compound": "CC[C@H]1OC(=O)[C@H](C)C[C@H](C)[C@@H](O[C@@H]2O[C@H](C)C[C@H](N(C)C)[C@H]2O)[C@](C)(OC)C[C@@H](C)C(=O)/C(C)=C/[C@]1(C)O",
    "reportedMeasurement": 0.39
  },
  {
    "compound": "CC[C@H]1OC(=O)[C@H](C)C[C@H](C)[C@@H](O[C@@H]2O[C@H](C)C[C@H](N(C)C)[C@H]2O)[C@](C)(OC)C[C@@H](C)C(=O)[C@H](C)[C@H]2N(CCc3ccc(Oc4ccccc4)cc3)C(=O)O[C@]12C",
    "reportedMeasurement": 0.39
  },
  {
    "compound": "CC[C@H]1OC(=O)[C@H](C)C[C@H](C)[C@@H](O[C@@H]2O[C@H](C)C[C@H](N(C)C)[C@H]2O)[C@](C)(OC)C[C@@H](C)C2=NCCN3C(=O)O[C@@]1(C)[C@H]3[C@H]2C",
    "reportedMeasurement": 0.39
  },
  {
    "compound": "CC[C@H]1OC(=O)[C@H](C)[C@@H](OC(=S)SC)[C@H](C)[C@@H](O[C@@H]2O[C@H](C)C[C@H](N(C)C)[C@H]2O)[C@](C)(OC)C[C@@H](C)C(=O)[C@H](C)[C@@H](O)[C@]1(C)O",
    "reportedMeasurement": 0.2
  },
  {
    "compound": "CCO/N=C1\\[C@H](C)C[C@@](C)(OC)[C@H](O[C@@H]2O[C@H](C)C[C@H](N(C)C)[C@H]2O)[C@@H](C)C[C@@H](C)C(=O)O[C@H](CC)[C@@](C)(O)[C@H](O)[C@H]1C",
    "reportedMeasurement": 0.39
  },
  {
    "compound": "CC[C@H]1OC(=O)[C@H](C)C[C@H](C)[C@@H](O[C@@H]2O[C@H](C)C[C@H](N(C)C)[C@H]2O)[C@](C)(OC)C[C@@H](C)C(=O)[C@H](C)[C@H]2N(CCCCc3ccccc3)C(=O)O[C@]12C",
    "reportedMeasurement": 0.39
  },
  {
    "compound": "CC[C@H]1OC(=O)[C@H](C)[C@@H](O[C@H]2C[C@@](C)(OC)[C@@H](O)[C@H](C)O2)[C@H](C)[C@@H](O[C@@H]2O[C@H](C)C[C@H](N(C)C)[C@H]2O)[C@](C)(OC)C[C@@H](C)C(=O)[C@H](C)[C@@H](O)[C@]1(C)O [CLARITHROMYCIN]",
    "reportedMeasurement": 0.2
  }
]

----------
Items are presented alongside their recorded MIC.
# Test system: Staphylococcus aureus
# experiment: Tested in vitro for minimum inhibitory concentration to produce antibacterial activity against Staphylococcus aureus A5177 in presence of erythromycin A
# Assay type: functional

[
  {
    "mol": "CC[C@H]1OC(=O)[C@H](C)C[C@H](C)[C@@H](O[C@@H]2O[C@H](C)C[C@H](N(C)C)[C@H]2O)[C@](C)(OC)C[C@@H](C)C2=NCCN3C(=O)O[C@@]1(C)[C@H]3[C@H]2C",
    "MIC / µg/mL": 12.5
  },
  {
    "mol": "CC[C@H]1OC(=O)[C@H](C)C[C@H](C)[C@@H](O[C@@H]2O[C@H](C)C[C@H](N(C)C)[C@H]2O)[C@](C)(OC)C[C@@H](C)C(=O)[C@H](C)[C@H]2N(CCCCc3ccccc3)C(=O)O[C@]12C",
    "MIC / µg/mL": 25
  },
  {
    "mol": "CCO/N=C1\\[C@H](C)C[C@@](C)(OC)[C@H](O[C@@H]2O[C@H](C)C[C@H](N(C)C)[C@H]2O)[C@@H](C)C[C@@H](C)C(=O)O[C@H](CC)[C@@](C)(O)[C@H](O)[C@H]1C",
    "MIC / µg/mL": 3.1
  },
  {
    "mol": "CC[C@H]1OC(=O)[C@H](C)[C@@H](O[C@H]2C[C@@](C)(OC)[C@@H](O)[C@H](C)O2)[C@H](C)[C@@H](O[C@@H]2O[C@H](C)C[C@H](N(C)C)[C@H]2O)[C@](C)(OC)C[C@@H](C)C(=O)[C@H](C)[C@@H](O)[C@]1(C)O",
    "MIC / µg/mL": 3.1
  }
]

----------
# Tested on: Staphylococcus aureus
# experiment: Tested in vitro for minimum inhibitory concentration to produce antibacterial activity against Staphylococcus aureus ATCC 6538P in presence of erythromycin A
# Format: functional

[
  {
    "mol": "CC[C@H]1OC(=O)[C@H](C)C(=O)[C@H](C)[C@@H](O[C@@H]2O[C@H](C)C[C@H](N(C)C)[C@H]2O)[C@](C)(OC)C[C@@H](C)C(=O)[C@H](C)[C@@H](O)[C@]1(C)O",
    "MIC, µg/mL": 0.2
  },
  {
    "mol": "CC[C@H]1OC(=O)[C@H](C)C[C@H](C)[C@@H](O[C@@H]2O[C@H](C)C[C@H](N(C)C)[C@H]2O)[C@](C)(OC)C[C@@H](C)C(=O)[C@H](C)[C@H]2OC(=O)O[C@@]21C",
    "MIC, µg/mL": 0.2
  },
  {
    "mol": "CC[C@H]1OC(=O)[C@H](C)C[C@H](C)[C@@H](O[C@@H]2O[C@H](C)C[C@H](N(C)C)[C@H]2O)[C@](C)(OC)C[C@@H](C)/C(=N\\OC)[C@H](C)[C@@H](O)[C@]1(C)O",
    "MIC, µg/mL": 0.2
  },
  {
    "mol": "CC[C@H]1OC(=O)[C@H](C)C[C@H](C)[C@@H](O[C@@H]2O[C@H](C)C[C@H](N(C)C)[C@H]2O)[C@](C)(OC)C[C@@H](C)C(=O)[C@H](C)[C@@H](O)[C@]1(C)O",
    "MIC, µg/mL": 0.1
  },
  {
    "mol": "CC[C@H]1OC(=O)[C@H](C)C[C@H](C)[C@@H](O[C@@H]2O[C@H](C)C[C@H](N(C)C)[C@H]2O)[C@](C)(OC)C[C@@H](C)/C(=N\\O)[C@H](C)[C@@H](O)[C@]1(C)O",
    "MIC, µg/mL": 0.2
  }
]
